- test.system: α-synuclein (UniProt P37840 1-140); further: test concentration or dose not given here
- assay.explanation: cell-based or functional assay
Non-standard residues stand in square brackets, D forms with d.
Each record here notes measured % decrease in ThT fluorescence.
The figure you give is taken to be in %; do not add the unit.

Below, each entry is followed by its recorded % decrease in ThT fluorescence result.
Ac-[dH][dH][dV][dI][dV][dP]-NH2 (SMILES CC[C@@H](C)[C@@H](NC(=O)[C@H](NC(=O)[C@@H](Cc1c[nH]cn1)NC(=O)[C@@H](Cc1c[nH]cn1)NC(C)=O)C(C)C)C(=O)N[C@@H](C(=O)N1CCC[C@@H]1C(N)=O)C(C)C) [ZP-0168]    -8.6
H-[dQ][dY][dS][dV][dL][dI]-NH2 (SMILES CC[C@@H](C)[C@@H](NC(=O)[C@@H](CC(C)C)NC(=O)[C@H](NC(=O)[C@@H](CO)NC(=O)[C@@H](Cc1ccc(O)cc1)NC(=O)[C@H](N)CCC(N)=O)C(C)C)C(N)=O) [ZP-0215]    27.6

Turning to the following binder.
Notebook: Ac-[dQ][dY][dS][dP][dL][dI]-NH2 (SMILES CC[C@@H](C)[C@@H](NC(=O)[C@@H](CC(C)C)NC(=O)[C@H]1CCCN1C(=O)[C@@H](CO)NC(=O)[C@@H](Cc1ccc(O)cc1)NC(=O)[C@@H](CCC(N)=O)NC(C)=O)C(N)=O) [ZP-0205] , % decrease in ThT fluorescence read as 16.6
